Cited source for all entries: the nanobody polyreactivity screen of Harvey et al. (2022)

# measurement-protocol: yeast display, Sf9 membrane polyspecificity reagent, FACS + sequencing; frameworks hold sequencing errors
measure: polyreactivity (PSR sort gate)

record-sequence: QVQLVESGGGLVQAGGSLRLSCAASGFIFDDNTMGWYRQAPGKERELVAAISYSAGSTYYADSVKGRFTISRDNAKNTVYLQMNSLKPEDTAVYYCAAQHYWVTSYLSSYDYWGQGTQVTVSS
value: low polyreactivity

record-sequence: QVQLVESGGGLVQARGSLRLSCAASGRIFRYYAMGSYRQAPGKERELVASITSGARTSYADSVKGRFTISRDIAKNTVYLQMNSLKPEDTAVYYCAAGGRARTYYYWGQGTQVTVSS
value: high polyreactivity

record-sequence: QVQLVESGGGLVQAGGSLRLSCAASGRIFTRYALGWYRHADGKVRELVATISRGGNTNYADSVKGRFTISRDNANNTVYLQMTSLKPEDTAVYYCAKYPVSRVGGYGYWGQGTQVTVSS
value: low polyreactivity

record-sequence: QVQLVESGGGLVQAGGSLRLSCAASGRTFSLYAMGWYRQAPGKERELVAGIDWSGGSTYYADSVKGRFTISRDNAKNTVYLQMNSLKPEDTAVYYCAAKYVWVSKASKDYDYWGQGTQVTVSS
value: low polyreactivity

record-sequence: QVQLVESGGGLVQAGGSLRLSCAASGSTFLYYTMGWYRQAPGKERELVAAITGSGTSTYYADSVKGRFTISRDNAKNTVYLQMNSLKPEDTAVYYCAARGHGRLYYWGHGTQVTVSS
value: high polyreactivity

record-sequence: QVQLVESGGGLVQAGGSLRLSCAATGSIFRWNTMGWYRPAPGKERELVAVITWSGDSTYYADSVKGRFTISRDNAKNTVYLQMNSLKPEDTAVYYCAVDVVTSYYELTGSFNYWGQGTQVTVSS
value: low polyreactivity

record-sequence: QVQLVESGGGLVQAGGILRLSCAASGRIFTPYTMGWYRQAPGKERELVATITWSGGSTYYADSVKGRFTISRDNAKNTVYLQMNSLKPEDTAVYYCAARPIYVWAEYDYWGQGTQVTVSS
value: low polyreactivity

record-sequence: QVQLVESGGGVVQAGGSLRLSCAASGINFGRNTMGWYRQAPGKERELVAAIDSGGNTYADSVKGRFTISRDNAKNTVYLQMNSLKPEDTAVYYCAVDGGEFSSYGYWGQGTQVTVSS
value: low polyreactivity

record-sequence: QVQLVESGGGLVQAGGSLRLSCAASGFTIVPYAMGWYRQAPGNERELVAAISRRGSRTYYADSVKGRFTISRDNAKNTVYLQMNSLKAEDTAVYYCAAKLSAVKAAYDYWGQGTQVTVSS
value: high polyreactivity

record-sequence: QVQLVESGGGLVQAGGSLRLSCAASGFIFLSYAKGWYRQAPGKERELVATITWSGGRTYYADSVKGRFTISRDNAKNTVYLQMNSLKPEDTAVYYCAKVNTYYNIYVTFDYWGQGTQVTVSS
value: low polyreactivity

record-sequence: QVQLLESCVGLVHAGGSLRLSCAASGFIFGTNAMGWSRQAPGKEREWVAAINGRGGGTYYADSVKGRFTISRDNAKNTVYLQMNSLKQEDTAVYYCAASRFDYWGQGTQVTVSS
value: low polyreactivity

----------
# measurement-protocol: yeast display, Sf9 membrane polyspecificity reagent, FACS + sequencing; frameworks hold sequencing errors

record-sequence: KVQLVESCGGLVQAGGSLRLSCAASGFIISNYAMGWYRQAPGKERELVASISWGGGSTYYADSVKGSFTISRDNAKNTVYLQMNSLKPEDTAVYYCAAPSWDGIAYYGGYDYLGQGTQVTVSS
polyreactivity (PSR sort gate): high polyreactivity
--
record-sequence: QVQLVESGGGLVQAGGSLRLICAASGFTFYRYAMGWYRQAPGKERELVASITRSGGSTSYADSVKGRFTISRDNAKNSVYLQMNRLKPEDTAVFYCAAVTTQYLFSVPYYYWGQGTQVTVSS
polyreactivity (PSR sort gate): high polyreactivity
--
record-sequence: QVQLVESGGGLVQAGGSLRLSCAASGFTFRTYAMGWSRQAPGKERELVAAITVSGGTYYADSVKGRFTISRDNAKNTVYLQMNSLKPEDTAVYYCAAGYWNDFDWGQGTQVTVSS
polyreactivity (PSR sort gate): low polyreactivity
--
record-sequence: QVQLVESAGGLVQAGGSLRLSSAASGRIFLYYAMGWYRQAPGKEREFVAAITYIGGSTYYADSVKGRFTISRDNAKNTVYLQMNSLKPEDTAVYWGEGTQVTVSS
polyreactivity (PSR sort gate): low polyreactivity
--
record-sequence: QVQLVESGGGLVQAGGSLRLSCAASGITFGYNAMGWYRQAPGKERELVASISYSGDSTYYADSVKGRFTISRDNAKNTVYLQMNSLKPEDTAVYYCNVRNRPGGEINDYDYWGQGTQVTVSS
polyreactivity (PSR sort gate): low polyreactivity
--
record-sequence: QVQLVESGGGFVQAGGSLRLSCAASGNIFPYNAMGWYRQAPGKERELVAAISSGGSTNYADSVKGRFTISRDNAKNTVYLQLNSLQPEDTAVYYCAAARSGGYDYWGQGTQVTVSS
polyreactivity (PSR sort gate): low polyreactivity
--
record-sequence: QVHHVESGGGLVQAGGSLRLSCAAYGFIFNVYAMGWYRQAPGKERELVAAISTSGSNTYYADSVKGRFTISRDNAKNTVYLQMNSLKPEDTADYYCAAAYRYPSGRSFGYWGQGTQVTVSS
polyreactivity (PSR sort gate): high polyreactivity
--
record-sequence: QVQLVESGGGLVQAGGSLRLSCAASGITFQYYAMGWYRQAPGKERELGAAITSSGVSTYYADSVKGRFTISRDNAKNTVYLQMNSLKPEDTAVYYCNTVVRGWSSSAYVYWGQGTQVTVSS
polyreactivity (PSR sort gate): low polyreactivity
--
record-sequence: QVQLVESGGGLVQAGGSLRLSCAASGRTFGGYAMGWYRQAPGKERELVAAITSDTGTNYADSVKGRFTISRDNAKNTVYLQMNSLKPEDTAVYYCAADRFYEYDYWGQGTQVTVSS
polyreactivity (PSR sort gate): low polyreactivity
--
record-sequence: QVQLVESGGGLVQAGGSLRLSCAASGSIFPRYAMGWYRQAPGKERELVAAISWSGGSTYYADSVKGRFTISRDNAKNTFYLQMNSLKPEDTAVYYCAALSKHVQVAYDPWGQGTQVTVSS
polyreactivity (PSR sort gate): high polyreactivity
--
record-sequence: QVQLVESGGGLVQAGGSLRLSCAASGRIFWVYAMGWYRQAPGKERELVAAIDWSDGITYYADSVKGRFTISRDNAKNTVYLQMNSLKPEDTAVYYCAAESVIYQTYNYWGQGTQVTVSS
polyreactivity (PSR sort gate): high polyreactivity
--
record-sequence: QVKLVESGGGLVQAGASLRLSCAASGIISYGNAMGRYRQAPGKERELVASISGISGSTYYADSVKGRFTISRDNAKNTVYLQMNSLKPEDTAVYYCNARYPTYRASYHGDYWGQGTQVTVSS
polyreactivity (PSR sort gate): low polyreactivity
--
record-sequence: QVQLEESGGGLVQAGGSLRLSCAASGSIFTANAMGWYRQAHGKERELVAAINRSGGRTYADSVKGRFTISRDNAKNTVYLQMNSLKPEDTAVYYCAAVGHVYKGHDFGYWGQGTQVTVSS
polyreactivity (PSR sort gate): low polyreactivity
--
record-sequence: QVQHVESRGGLVQARGSLRLSCAASGRIFSPYAMGWYRQAPGKERELVAAITWSGGSTYYADSVKGRFTISRDNAMNTVYLQMNSLKQEDTAVYYCAADFYRRYYAWEYYYWGQGTQVTVSS
polyreactivity (PSR sort gate): high polyreactivity
--
record-sequence: QVQLVESGGGLVQAGGSLRLSCAASGITFWKYAMGWYRQAPGKERELVAVITKSGGSTYYADSVKGRFTISRDNAKNTVYLQMNSLKPEDTAVYYCAASSETYYYGYEYWGQGTQVTVSS
polyreactivity (PSR sort gate): high polyreactivity
--
record-sequence: QVQLVESGGGLVQAGGSLRLSCAASGITSSLNAMGWYRQAPGKERELVAAISWRGGSTYYADSVKGRFTISRDNAKNTVYLQMNSLKPEDTAVYYCAARSSYRKMDYWGQGTQVTVSS
polyreactivity (PSR sort gate): high polyreactivity
--
record-sequence: QVQLVESGGGLVQAGGSLRLSCAASGRTFRRYAMGWYRQAPGKERELVATITSNGGSTYYADSVKGRFTISRDNAKNTVYLQMNSLKPEDTAVYYCARDLTYYRSRYDYWGQGTQVTVSS
polyreactivity (PSR sort gate): high polyreactivity
--
record-sequence: QVQLVESGGGLVQAGGSLRLSCAASGLTFTSYAMGWYRQAPGKERELVAAIDWSGGRTYYADSVKGRFTISRDNAKNTVYLQMNSLKPEDTAVYYCYKYRYQWPYRRFDYWGQGTQVTVSS
polyreactivity (PSR sort gate): high polyreactivity
--
record-sequence: QVQLVETGGGLVQAGGSLRLSCAASGRTFDPNAMGWYRQAPGKERELVAAIDWTGGRTYYADSVKGRFTISRDNAKNTVYLQMNSLKPEDTAVYYCAARYYRFRSSRDYWGQGTQVTVSS
polyreactivity (PSR sort gate): high polyreactivity
--
record-sequence: QVQLVESGGGLVQAGGSLRLSCAASGSTFGDNAMVWYRQAPGKERELVAAITFRDGITYYADSVKGRITISRDNAKNSVYLQMNSLKPEDTAFYYCAKGVHRRWYYGYGYWGQGTQVTVSS
polyreactivity (PSR sort gate): high polyreactivity
--
record-sequence: QVQLVESVGGLFQAGGSLRLSCAASGSTFDYYSMVWYRQAPGKERELVAGIDSAGSTNYADSVKGRFTISRDNAKNTVYLQMNSLKTGRYRGLYCNVGKTITTYAFPTFDYWGQGTQVTVSS
polyreactivity (PSR sort gate): low polyreactivity
